Examples of compounds with documented efficacy follow.
conditions: Ebola virus entry assay, green fluorescence channel
Measured potencies and affinities stand elsewhere.

# compound, efficacy, %
records = [
    ("Cc1ccc(CCn2c3c(c4cc(Cl)ccc42)CN(C)CC3)cn1", 26.4),
    ("O=c1[nH]cnc2c1ncn2[C@@H]1O[C@H](CO)[C@@H](O)[C@H]1O", -42.8),
    ("C#C[C@]1(O)C=C[C@H]2[C@@H]3CCC4=CC(=O)CC[C@@H]4[C@H]3CC[C@@]21CC", 51.7),
    ("NCCNC(=O)c1ccc(Cl)cn1", -25.1),
    ("NC(N)=NN=C(/C=C/c1ccc([N+](=O)[O-])o1)/C=C/c1ccc([N+](=O)[O-])o1", -41.4),
    ("C[N+](C)(C)CCOC(=O)CCC(=O)OCC[N+](C)(C)C", 18.3),
    ("CCOC(=O)Nc1ccc(NCc2ccc(F)cc2)nc1N", 25.7),
    ("CCc1cc(OC)c(C[C@H](C)N)cc1OC", 38.5),
    ("O=C1c2ccccc2C(=O)C1c1ccc(Br)cc1", -9.92),
    ("CCCCOC(=O)CCCCCCCCC(=O)OCCCC", -13.9),
    ("CC(=O)Nc1ccc(OCCOCCOc2ccc(NC(C)=O)cc2)cc1", 20.2),
    ("CC(N)C(=O)OC(C)(C)Cc1ccc(Cl)cc1 (stereo not drawn)", 77),
    ("OCC(O)CS (stereo not drawn)", -11.9),
    ("COc1ccc(CN(CCN(C)C)c2ccccn2)cc1", 22.5),
    ("CNC[C@H](O)c1ccc(O)c(O)c1", 27.1),
    ("O=C(/C=C/c1ccc(O)c(O)c1)O[C@@H]1C[C@@](OC(=O)/C=C/c2ccc(O)c(O)c2)(C(=O)O)C[C@@H](O)[C@@H]1O", 21.8),
    ("CC(C)=CCNc1ncnc2c1ncn2[C@@H]1O[C@H](CO)[C@@H](O)[C@H]1O", 38.7),
    ("O=C(O)c1ccccc1Nc1cc(Cl)ccc1C(=O)O", -12.4),
    ("CN1CCC(OC(c2ccccc2)c2ccccc2)CC1", 74.4),
    ("O=C(O)CN(CCOCCOCCN(CC(=O)O)CC(=O)O)CC(=O)O", 19.2),
    ("CN1CCC(=C2c3ccccc3Sc3ccccc32)CC1", 61.5),
    ("C=CCNc1nc(NCC=C)nc(N2CCN(C(c3ccc(F)cc3)c3ccc(F)cc3)CC2)n1", 31),
    ("CC1=C(CC(=O)O)c2cc(F)ccc2/C1=C\\c1ccc(S(C)=O)cc1 (stereo not drawn)", 55.9),
]

---

experimental-protocol: qHTS of pediatric cancer cell lines to identify multiple opportunities for drug repurposing: Primary screen for Saos-2 cells (AID 1347097); note: nearly all actives have a fitted effect of over 40% in size
conditions: Saos-2 viability, CellTiter-Glo ATP luminescence, 48 h; series mostly up to 46 µM
Records with an inconclusive call do not appear. Active and inactive are the calls of the source. Calls follow the shape of the dose curve; as a rule, active = well fitted cell-killing curve with a large enough effect; inconclusive = small, poorly fitted or top-dose-only effect; inactive = no such curve, though single readings can be large or run the other way.
Outcomes: YES = active, NO = inactive

# compound, class-name
measured = [
    ("COc1cc(CC#N)cc(OC)c1OC", "NO"),
    ("O=C(CCCCl)c1ccc(F)cc1", "NO"),
    ("CC1N=C(N)OC1c1ccccc1 (configuration not stated)", "NO"),
    ("CC[n+]1c(-c2ccccc2)c2cc(N)ccc2c2ccc(N)cc21", "YES"),
    ("O=C(O)c1nn(Cc2ccc(Cl)cc2Cl)c2ccccc12", "NO"),
    ("CCCCC1C(=O)NC(=O)N(C2CCCCC2)C1=O (configuration not stated)", "NO"),
    ("CCN1CCCC1CNC(=O)C(O)(c1ccccc1)c1ccccc1 (configuration not stated)", "NO"),
    ("ClCCCN1CCN(c2cccc(Cl)c2)CC1", "NO"),
    ("COc1ccc(CN2CCNCC2)c(OC)c1OC", "NO"),
    ("NC1(c2ccccc2)CCCCC1", "NO"),
    ("CC#C[C@]1(O)CC[C@H]2[C@@H]3C[C@H](C)C4=CC(=O)CC[C@]4(C)[C@H]3CC[C@@]21C", "NO"),
    ("CCC(=O)O[C@H]1CC[C@H]2[C@@H]3CCC4=CC(=O)CC[C@]4(C)[C@H]3CC[C@]12C", "NO"),
]

---

experimental-protocol: qHTS of pediatric cancer cell lines to identify multiple opportunities for drug repurposing: Primary screen for BT-12 cells (AID 1347101); note: nearly all actives have a fitted effect of over 25% in size
conditions: BT-12 viability, CellTiter-Glo luminescence, 48 h; series mostly up to 57.3 µM
Procedure: Drug repurposing or repositioning has been offered as a strategy for drug development in oncology programs. […] [1] Shen, M et al. Quantitative high-throughput phenotypic screening of pediatric cancer cell lines identifies multiple opportunities for drug repurposing. […] Cells were assayed in growth media at a density of 500-1,000 cells/well. […] After a 15 min incubation at room temperature, samples were analyzed for luminescence intensity using a ViewLux High-throughput CCD imager equipped with clear filters.
Results filed as inconclusive are left out. Activity calls are given as the source filed them. Calls follow the shape of the dose curve; as a rule, active = well fitted cell-killing curve with a large enough effect; inconclusive = small, poorly fitted or top-dose-only effect; inactive = flat fitted curve, though single readings scatter.
Labels: 1.0 for active, 0.0 for inactive

# compound, class-name
data = [
    ("Cc1nnc2n1-c1sc(CCC(=O)N3CCOCC3)cc1C(c1ccccc1Cl)=NC2", 0.0),
    ("CN(C)C(=O)Oc1cc(OC(=O)N(C)C)cc(C(O)CNC(C)(C)C)c1 (stereo not drawn)", 0.0),
    ("CCN1CCCC1CNC(=O)C(O)(c1ccccc1)c1ccccc1 (stereo not drawn)", 0.0),
    ("C[C@]12CC[C@H](O)CC1=CC[C@@H]1[C@@H]2CC[C@]2(C)C(=O)CC[C@@H]12", 0.0),
    ("CN(C)C(=S)SSC(=S)N(C)C", 1.0),
    ("CCCOC(=O)Cc1ccc(OCC(=O)N(CC)CC)c(OC)c1", 0.0),
    ("CCNc1nc(Cl)nc(NCC)n1", 0.0),
    ("C#C[C@]1(O)C=C[C@H]2[C@@H]3CCC4=CC(=O)CC[C@@H]4[C@H]3CC[C@@]21CC", 0.0),
    ("C[C@@H]1O[C@@H](O[C@@H]2C=C3CC[C@@H]4[C@H](CC[C@]5(C)[C@@H](c6ccc(=O)oc6)CC[C@]45O)[C@@]3(C)CC2)[C@H](O)[C@H](O)[C@H]1O", 1.0),
    ("ClCc1cccc(Cl)c1", 0.0),
    ("CCCCCCCCCCCC[N+](C)(C)CCOc1ccccc1", 1.0),
    ("C[C@]12C=CC(=O)C=C1CC[C@@H]1[C@@H]2CC[C@@]2(C)[C@H]1CC[C@]2(C)O", 0.0),
    ("CCC1(CC)C(=O)NC(=O)NC1=O", 0.0),
    ("O=c1n(Cl)c(=O)n(Cl)c(=O)n1Cl", 0.0),
    ("CNC(C)Cc1ccc2c(c1)OCO2 (stereo not drawn)", 0.0),
    ("Cc1cccc(Cc2cnc[nH]2)c1C", 0.0),
    ("C=CCN1CC[C@]23CCCC[C@H]2[C@H]1Cc1ccc(O)cc13", 0.0),
    ("CCOC(=O)C1(c2ccccc2)CCN(CCc2ccc(N)cc2)CC1", 0.0),
    ("CCN(CC)C(C)C(=O)c1ccccc1 (stereo not drawn)", 0.0),
    ("CCC(=O)O[C@H]1CC[C@H]2[C@@H]3CCC4=CC(=O)CC[C@]4(C)[C@H]3CC[C@]12C", 0.0),
    ("CCC1(c2ccccc2)CCC(=O)NC1=O (stereo not drawn)", 0.0),
    ("CC(C)=C[C@@H]1[C@@H](C(=O)OCc2coc(Cc3ccccc3)c2)C1(C)C", 0.0),
    ("CC(Cc1ccccc1)NCCCCl (stereo not drawn)", 0.0),
]

---

The molecules listed here are annotated with their max response.
test-target: Retinoic acid receptor RXR-alpha (Homo sapiens)
experimental-protocol: qHTS assay for small molecule antagonists of retinoid X receptor alpha signaling (AID 588546);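 note: cells stimulated with 9-cis-retinoic acid as agonist; % is set by controls: 0 for no effect and ±100 for the full control effect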
conditions: HEK293T RXRa-UAS-bla, beta-lactamase ratio, antagonist mode
Records with an inconclusive call do not appear.

# molecule, max response [%]
rows = [
    ("CCNc1nc(Cl)nc(NCC)n1", 2.68),
    ("COP(=S)(OC)Oc1ccc(Sc2ccc(OP(=S)(OC)OC)cc2)cc1", -19.4),
    ("CCC(=O)O[C@H]1CC[C@H]2[C@@H]3CCC4=CC(=O)CC[C@]4(C)[C@H]3CC[C@]12C", -0.425),
    ("O=c1n(Cl)c(=O)n(Cl)c(=O)n1Cl", 2.47),
    ("C[C@H]1C(=O)O[C@@H]2CCN3CC=C(COC(=O)[C@](C)(O)[C@]1(C)O)[C@H]23", -1.01),
    ("O=C(NC(=O)c1c(F)cccc1F)Nc1cc(Cl)c(OC(F)(F)C(F)C(F)(F)F)cc1Cl (stereo not drawn)", -7.55),
    ("COCC(=O)N(c1c(C)cccc1C)C(C)C(=O)OC (stereo not drawn)", -3.83),
    ("Cc1ccc(N=CN(C)C=Nc2ccc(C)cc2C)c(C)c1", -33.7),
]
